molecular target: BChE (from horse serum) (Equus caballus); construct: BChE (from horse serum); from tissue; host or cells: horse serum; test: biochemical
Sequence (P81908 whole entry): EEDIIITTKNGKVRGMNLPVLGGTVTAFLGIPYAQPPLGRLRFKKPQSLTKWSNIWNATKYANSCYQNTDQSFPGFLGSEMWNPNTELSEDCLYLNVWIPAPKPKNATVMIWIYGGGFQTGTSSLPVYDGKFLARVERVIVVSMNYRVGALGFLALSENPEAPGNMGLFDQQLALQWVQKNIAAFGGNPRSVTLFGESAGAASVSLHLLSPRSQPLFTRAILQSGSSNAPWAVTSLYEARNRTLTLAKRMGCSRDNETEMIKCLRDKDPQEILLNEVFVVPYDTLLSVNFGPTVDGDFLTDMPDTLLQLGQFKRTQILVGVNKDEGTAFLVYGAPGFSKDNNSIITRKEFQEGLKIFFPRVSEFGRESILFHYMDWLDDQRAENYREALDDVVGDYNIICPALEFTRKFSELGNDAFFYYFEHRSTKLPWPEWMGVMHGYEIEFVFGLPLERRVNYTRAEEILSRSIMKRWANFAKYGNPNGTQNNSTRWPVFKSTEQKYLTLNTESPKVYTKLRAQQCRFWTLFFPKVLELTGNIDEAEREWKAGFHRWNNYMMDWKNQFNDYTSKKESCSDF
outcome.measure: Ki
Output should be the measured figure followed by the unit it is expressed in.

Please report the recorded Ki for N=C(N)c1cccc(NC(=O)CC(=O)NCc2ccc(-c3cccc(F)c3)cc2)c1 [Compound 19f] .
8.09 µM

====

Quick reference: inhibition at 50 µM of the listed items.
biological target: BChE (from horse serum) (Equus caballus); construct: BChE (from horse serum); from tissue; host or cells: horse serum; experiment: biochemical; settings: at 50 μM; read-out: inhibition percentage BchE
Output spec: scalar in %, unitless text.

| compound | units.label | inhibition at 50 µM |
| --- | --- | --- |
| N=C(N)c1cccc(NC(=O)CC(=O)N2CCC(Oc3ccc(F)cc3F)CC2)c1 [Compound 22b] | % | 25 |

Please report the recorded inhibition at 50 µM for N=C(N)c1cccc(NC(=O)CC(=O)NCc2ccc(-c3ccccc3)cc2)c1 [Compound 19d] .
28

And then N=C(N)c1cccc(NC(=O)CC(=O)NCc2ccc(-c3ccc(F)cc3)cc2)c1 [Compound 19g] , what is it?
37

And then N=C(N)c1cccc(NC(=O)CC(=O)N2CCC(Oc3ccc(F)cc3)CC2)c1 [Compound 22a] , what is it?
22
